# Protocol summary: Drug uptake in Wistar rat brain at 1 mg/kg, ip measured after 35 mins by HPLC-MS/MS analysis
# Type: ADME, organism-based
# Test settings: read-out: Ct
Readout type: concentration at 35 min (nM)

[A] O=C(NCc1ccc2[nH]ccc2c1)N1CC(COc2ccc(C(F)(F)F)cc2)C1
[B] Cc1ccc(CN2CCN(C(=O)C(=O)Nc3ccc4c(ccn4C)c3)CC2)cc1
Returns: the argument ( A or B ) having the larger concentration at 35 min. Which one? Tell me its label.
A

----------
# Protocol summary: Mutagenicity in Escherichia coli WP2 uvrA in presence of rat liver S9 fraction by AMES test
# Format: toxicity, subcellular
Readout type: Activity

{"Mol smiles": "Cc1ccc(CN2CCN(C(=O)C(=O)Nc3cc(F)c4[nH]ccc4c3)CC2)cc1", "Readout type": "Activity", "Reported measurement": "Toxic"}
{"Mol smiles": "Cc1ccc(CN2CCN(C(=O)C(=O)Nc3ccc4c(ccn4C)c3)CC2)cc1", "Readout type": "Activity", "Reported measurement": "Non-Toxic"}
{"Mol smiles": "Cc1ccc(CN2CCN(C(=O)C(=O)Nc3ccc4c(c3)c(C)cn4C)CC2)cc1", "Readout type": "Activity", "Reported measurement": "Toxic"}
{"Mol smiles": "Cc1ccc(CN2CCN(C(=O)C(=O)Nc3ccc4c(c3)c(Cl)cn4C)CC2)cc1", "Readout type": "Activity", "Reported measurement": "Toxic"}
{"Mol smiles": "O=C(NCc1ccc2[nH]ccc2c1)N1CC(COc2ccc(C(F)(F)F)cc2)C1", "Readout type": "Activity", "Reported measurement": "Non-Toxic"}

Which Activity is reported for this molecule? `Cc1ccc(CN2CCN(C(=O)C(=O)Nc3ccc4[nH]c(C)c(C)c4c3)CC2)cc1`
Toxic

What measured Activity goes with `Cc1ccc(CN2CCN(C(=O)C(=O)Nc3cc4ccn(C)c4cc3F)CC2)cc1` ?
Toxic

Fill in: Activity of `Cc1ccc(CN2CCN(C(=O)C(=O)Nc3ccc4c(c3)c(F)cn4C)CC2)cc1` is ___
Toxic

Dear colleague, I am looking for the recorded Activity of the following molecule: `Cc1ccc(CN2CCN(C(=O)C(=O)Nc3ccc4c(F)cn(C)c4c3)CC2)cc1`
Toxic
